- tested.system: UniProtKB P00519
- Sequence (P00519 whole entry, species assumed): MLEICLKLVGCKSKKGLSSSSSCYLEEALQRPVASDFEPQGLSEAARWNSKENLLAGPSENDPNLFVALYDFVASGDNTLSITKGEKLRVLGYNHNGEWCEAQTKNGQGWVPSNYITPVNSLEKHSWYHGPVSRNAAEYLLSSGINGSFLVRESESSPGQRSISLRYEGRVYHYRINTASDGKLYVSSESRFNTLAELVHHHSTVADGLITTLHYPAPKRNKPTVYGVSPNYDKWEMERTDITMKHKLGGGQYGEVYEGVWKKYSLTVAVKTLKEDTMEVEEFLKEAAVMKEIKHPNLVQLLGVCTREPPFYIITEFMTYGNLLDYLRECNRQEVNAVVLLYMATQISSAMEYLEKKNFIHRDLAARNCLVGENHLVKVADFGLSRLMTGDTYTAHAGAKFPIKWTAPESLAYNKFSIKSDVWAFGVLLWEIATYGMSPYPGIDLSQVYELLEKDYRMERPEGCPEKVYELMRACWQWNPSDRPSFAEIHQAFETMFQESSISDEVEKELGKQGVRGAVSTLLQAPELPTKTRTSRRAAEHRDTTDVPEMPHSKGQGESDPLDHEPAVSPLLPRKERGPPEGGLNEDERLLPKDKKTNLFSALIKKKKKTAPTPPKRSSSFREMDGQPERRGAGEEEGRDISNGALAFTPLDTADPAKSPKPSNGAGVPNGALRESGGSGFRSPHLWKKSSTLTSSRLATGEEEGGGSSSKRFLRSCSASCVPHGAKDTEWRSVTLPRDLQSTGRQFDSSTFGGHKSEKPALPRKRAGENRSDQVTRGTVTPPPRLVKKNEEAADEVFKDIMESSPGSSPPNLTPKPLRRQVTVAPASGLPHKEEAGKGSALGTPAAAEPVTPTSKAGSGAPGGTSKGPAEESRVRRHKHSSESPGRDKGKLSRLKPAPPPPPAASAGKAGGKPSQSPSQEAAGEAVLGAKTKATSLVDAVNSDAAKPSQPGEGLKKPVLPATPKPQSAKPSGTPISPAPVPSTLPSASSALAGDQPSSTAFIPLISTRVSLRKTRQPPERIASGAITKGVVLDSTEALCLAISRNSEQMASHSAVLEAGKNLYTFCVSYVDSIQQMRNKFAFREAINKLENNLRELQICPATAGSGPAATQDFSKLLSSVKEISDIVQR
recorded.endpoint: IC50

Enquiry: Determine its reported IC50: C[C@H]1CN(C(=O)CC#N)[C@]12CCN(c1ncnc3[nH]ccc13)C2
Return: > 1000 nM

----------
- tested.system: Tie2 (Homo sapiens)
- Sequence (Q02763 23-1124): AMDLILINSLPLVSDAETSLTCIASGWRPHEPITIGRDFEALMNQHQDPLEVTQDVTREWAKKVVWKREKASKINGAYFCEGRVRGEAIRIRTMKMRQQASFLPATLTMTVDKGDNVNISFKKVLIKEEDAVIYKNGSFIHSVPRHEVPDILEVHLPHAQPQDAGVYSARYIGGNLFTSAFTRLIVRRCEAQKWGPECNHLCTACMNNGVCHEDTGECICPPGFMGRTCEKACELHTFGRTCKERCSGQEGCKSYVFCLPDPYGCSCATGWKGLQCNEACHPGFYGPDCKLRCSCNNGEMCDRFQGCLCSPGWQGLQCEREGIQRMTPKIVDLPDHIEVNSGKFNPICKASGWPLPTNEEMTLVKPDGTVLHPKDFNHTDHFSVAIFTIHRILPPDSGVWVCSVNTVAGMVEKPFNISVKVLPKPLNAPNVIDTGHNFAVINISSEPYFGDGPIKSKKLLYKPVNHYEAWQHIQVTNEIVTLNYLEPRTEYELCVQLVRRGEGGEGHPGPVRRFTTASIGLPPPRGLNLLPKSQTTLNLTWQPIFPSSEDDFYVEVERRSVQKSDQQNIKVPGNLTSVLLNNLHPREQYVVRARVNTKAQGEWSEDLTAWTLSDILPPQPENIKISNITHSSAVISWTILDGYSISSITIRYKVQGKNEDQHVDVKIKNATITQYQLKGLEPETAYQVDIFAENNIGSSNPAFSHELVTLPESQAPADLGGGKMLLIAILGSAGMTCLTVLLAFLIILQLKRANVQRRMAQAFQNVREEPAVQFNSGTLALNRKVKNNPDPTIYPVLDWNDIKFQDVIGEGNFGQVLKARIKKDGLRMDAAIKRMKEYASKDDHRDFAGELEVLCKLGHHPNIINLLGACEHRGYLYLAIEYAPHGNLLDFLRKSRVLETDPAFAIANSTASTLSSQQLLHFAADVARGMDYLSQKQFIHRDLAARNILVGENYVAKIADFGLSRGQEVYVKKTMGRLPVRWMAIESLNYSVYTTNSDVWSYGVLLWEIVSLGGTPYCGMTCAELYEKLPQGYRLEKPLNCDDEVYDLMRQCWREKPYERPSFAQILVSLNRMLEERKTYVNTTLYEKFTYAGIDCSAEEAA
pIC50: −log10 of the molar value.
recorded.endpoint: pIC50

Enquiry: Determine its reported pIC50: C[C@H]1CN(C(=O)CC#N)[C@]12CCN(c1ncnc3[nH]ccc13)C2 [JTE-052]
Return: < 6.00

----------
- tested.system: Aurora-A (Homo sapiens, UniProt O14965)
- Construct: purchased Millipore Co. Ltd. (KinaseProfiler service)
- Sequence (O14965 whole entry): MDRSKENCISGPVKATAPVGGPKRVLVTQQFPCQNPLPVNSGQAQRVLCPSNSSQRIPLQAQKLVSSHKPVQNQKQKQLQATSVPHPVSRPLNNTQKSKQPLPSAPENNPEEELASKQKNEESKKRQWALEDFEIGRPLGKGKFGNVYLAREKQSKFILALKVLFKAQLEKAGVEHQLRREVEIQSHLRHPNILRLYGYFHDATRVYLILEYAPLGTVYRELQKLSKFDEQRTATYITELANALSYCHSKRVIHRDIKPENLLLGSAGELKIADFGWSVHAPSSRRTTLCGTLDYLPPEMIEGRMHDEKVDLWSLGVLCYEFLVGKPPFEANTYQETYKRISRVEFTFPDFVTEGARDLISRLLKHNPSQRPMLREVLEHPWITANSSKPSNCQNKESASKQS
- assay.notes: KinaseProfiler selectivity: Aurora-A
- Format: biochemical
pIC50: −log10 of the molar value.
recorded.endpoint: pIC50

Enquiry: Determine its reported pIC50: C[C@H]1CN(C(=O)CC#N)[C@]12CCN(c1ncnc3[nH]ccc13)C2 [JTE-052]
Return: < 6.00

From: paper PMC4286029
